All figures here come from PubChem BioAssay AID256.

system: CD2F1 mice, L1210 leukemia ip, survival T/C; assay: NCI In Vivo Anticancer Drug Screen. Data for tumor model L1210 Leukemia (intraperitoneal) in CD2F1 (CDF1) mice; details: endpoint: mean survival time; dose: 400.0 mg/kg/injection; schedule: Q01DX009 (ip); vehicle: saline with Tween-80; higher = longer survival
Toxic doses and inconclusive results are not listed.
Observed property: T/C

>>> measured_result("C=CCCCCCCCCCCC(=O)OC")
"101 % of control"

Reading of T/C for COc1ccc(C=Nc2ccccc2)cc1 with CD2F1 mice, L1210 leukemia ip, survival T/C: 89 % of control

Reading of T/C for Cc1ccc(N2C(=O)CC(Sc3ccccc3N)C2=O)cc1Cl (stereo unspecified) with CD2F1 mice, L1210 leukemia ip, survival T/C: 95 % of control

Reading of T/C for COC(=O)C(CSCc1ccccc1)NC(=O)C(C)NC(=O)OCc1ccccc1 (stereo unspecified) with CD2F1 mice, L1210 leukemia ip, survival T/C: 92 % of control

Reading of T/C for CC(O)(CCc1ccccc1)CC(O)(C(F)(F)F)C(F)(F)F (stereo unspecified) with CD2F1 mice, L1210 leukemia ip, survival T/C: 108 % of control

Reading of T/C for Cc1ccc(S(=O)(=O)OC2C(COCC(=O)O)OC3OC(C)(C)OC32)cc1 (stereo unspecified) with CD2F1 mice, L1210 leukemia ip, survival T/C: 90 % of control

* * *

test system: CD2F1 mice, L1210 leukemia ip, survival T/C; experiment: NCI In Vivo Anticancer Drug Screen. Data for tumor model L1210 Leukemia (intraperitoneal) in CD2F1 (CDF1) mice; conditions: endpoint: mean survival time; dose: 25.0 mg/kg/injection; schedule: Q01DX009 (ip); vehicle: saline with Tween-80; higher = longer survival
Toxic doses and inconclusive results are not listed.
Observed property: T/C

The recorded T/C for entry O=C(COc1ccc(Cl)c(Cl)c1)Nc1ccc(Cl)cc1 equals 98 % of control

The recorded T/C for entry Cc1cc(Br)c2ccccc2c1N(CC(=O)O)S(=O)(=O)c1ccccc1 equals 103 % of control

The recorded T/C for entry CC1=CC(=NN=c2cc(C)n([O-])c(C)c2)C=C(C)[N+]1=O equals 108 % of control

* * *

test system: CD2F1 mice, L1210 leukemia ip, survival T/C; test: NCI In Vivo Anticancer Drug Screen. Data for tumor model L1210 Leukemia (intraperitoneal) in CD2F1 (CDF1) mice; conditions: endpoint: mean survival time; dose: 200.0 mg/kg/injection; schedule: Q01DX001 (ip); vehicle: saline; higher = longer survival
Inconclusive results and toxic doses are left out.
Observed property: T/C

>>> measured_result("COC(=O)CNC(=O)C(F)(F)F")
"112 % of control"
>>> measured_result("CCS(=O)(=O)C1(S(=O)(=O)CC)CCCCC1")
"102 % of control"
>>> measured_result("O=C(O)c1cc(-c2ccc(Cl)cc2)nc2c1ccc1ccccc12")
"97 % of control"

The recorded T/C for entry COc1cc2c(cc1O)C(O)CNC2 (configuration not stated) equals 93 % of control

The recorded T/C for entry O=C(O)c1cc(N2CCCCC2)ccn1 equals 100 % of control

* * *

test system: CD2F1 mice, L1210 leukemia ip, survival T/C; assay: NCI In Vivo Anticancer Drug Screen. Data for tumor model L1210 Leukemia (intraperitoneal) in CD2F1 (CDF1) mice; conditions: endpoint: mean survival time; dose: 100.0 mg/kg/injection; schedule: Q01DX009 (ip); vehicle: other; higher = longer survival
Inconclusive results and toxic doses are left out.
Observed property: T/C

>>> measured_result("CN(C)C=NC1=NN(C)c2ncnc3c2c1cn3C1OC(CO)C(O)C1O (configuration not stated)")
"108 % of control"
>>> measured_result("CC(C)CCCC(C)C1CCC2C3CC=C4CC(OCCO)CCC4(C)C3CCC12C (configuration not stated)")
"87 % of control"
>>> measured_result("CCOC(=O)C1C(=O)N(c2ccccc2)C(=O)N1Cc1ccccc1 (configuration not stated)")
"95 % of control"
>>> measured_result("O=C(NCCCCC(NC(=O)OCc1ccccc1)C(=O)ON1C(=O)CCC1=O)OCc1ccccc1 (configuration not stated)")
"94 % of control"
>>> measured_result("CCCCCCCCCCCSSCCCCCCCCCCC")
"101 % of control"
>>> measured_result("CC(O)C(=O)Oc1ccccc1 (configuration not stated)")
"100 % of control"
>>> measured_result("Nc1ccc(C(O)(C(F)(F)F)C(F)(F)F)c(C(=O)O)c1")
"106 % of control"
>>> measured_result("CC(O)(CCc1ccccc1)CC(O)(C(F)(F)F)C(F)(F)F (configuration not stated)")
"96 % of control"

Could you now consider this next compound?
Reading of T/C for Nc1nc(Br)c(Br)nc1N with CD2F1 mice, L1210 leukemia ip, survival T/C: 92 % of control
